- Tested on: Echinochloa crus-galli (ECHCG)
- testProtocol: Test 1 glasshouse assay, post-emergence herbicidal activity
- Format: in vivo
- conditionInfo: 312 h, post-emergence (Example 1B Table 1), 250 g/ha, after 13 days, read-out: Percentage phytotoxicity ECHCG
The entries below are paired with their reported pest or weed control at 250 g/ha.
parameterMeasured: pest or weed control at 250 g/ha

{"columns": ["compound", "obsValue"],
 "data": [
  ["C#CCC1CC(=O)C(c2c(Cl)cc(-c3ccc(Cl)cn3)cc2OC)C1=O (stereo not drawn) [Compound A10]", "100%"],
  ["C#CCC1CC(=O)C(c2cc(-c3ccc(Cl)cc3)ccc2C)C1=O (stereo not drawn) [Compound A16]", "100%"],
  ["C#CCC1CC(=O)C(c2c(C)cc(-c3ccc(F)cc3)cc2C)C1=O (stereo not drawn) [Compound A1]", "100%"],
  ["C#CCC1CC(=O)C(c2c(F)cc(-c3ccc(F)cc3F)cc2OC)C1=O (stereo not drawn) [Compound A21]", "100%"],
  ["C#CCC1CC(=O)C(c2cc(-c3ccc(Cl)cc3Cl)ccc2C)C1=O (stereo not drawn) [Compound A15]", "70%"],
  ["C#CCC1CC(=O)C(c2c(F)cc(-c3ccc(F)cc3)cc2Cl)C1=O (stereo not drawn) [Compound A4]", "100%"],
  ["C#CCC1CC(=O)C(c2cc(-c3ncc(Cl)cc3F)ccc2C)C1=O (stereo not drawn) [Compound A18]", "80%"],
  ["C#CCC1CC(OC(C)=O)=C(c2c(C)cc(-c3ccc(F)cc3)cc2C)C1=O (stereo not drawn) [Compound A45]", "100%"],
  ["C#CCC1CC(=O)C(c2c(Cl)cc(-c3ccc(F)c(F)c3)cc2OC)C1=O (stereo not drawn) [Compound A13]", "100%"]
]}
